Value source: ChEMBL document CHEMBL1201862

- Tested on: NCI-H226
- protocol_details: NCI tumour cell line growth inhibition, 48 h
The source made the active and inactive calls. Rule as the data show it: active = GI50 up to about 1.1 µM and inactive = higher.
endpoint_label: GI50

The examples below pair each entry with its known result.
Cc1cc(=O)oc2c(CN(CCCl)CCCl)c(O)ccc12	35.3 µM (inactive)
CN(C)/C=N/C1CCC(C(C)(C)C)CC1 (stereo not given)	19.3 µM (inactive)
CCc1cccc(C(C)C)c1NC(=O)/C(=N\NC(N)=O)C(C(=O)OC)c1cnc2ccccc2n1 (stereo not given)	50.5 µM (inactive)
Cc1cc(N(CCC#N)CCC#N)ccc1/N=N/c1ccc(C(=O)O)cc1	> 100 µM (inactive)

Switching to the query record.
Would you kindly share the measured GI50 for C=C(C)[C@H]1C=C[C@@H](OC(=O)c2cccnc2)[C@@]23CO[C@@](C)([C@H](OC(=O)c4cccnc4)[C@@]4(OC(C)=O)C[C@H](C)[C@H](OCCC)[C@@H]4[C@H]2OC(C)=O)[C@H]13 ? > 15 µM (inactive)

* * *

- Tested on: M14
- protocol_details: NCI tumour cell line growth inhibition, 48 h
Calls of active or inactive are those of the source. No stated cut-off is given here; in the data, active = GI50 up to about 1.1 µM and inactive = higher.
Mark one answer only. Choices: true (active), false (inactive)

Please review the entries below; each comes with its answer.
Nc1nncc2[nH]nnc12	false
O=C(O)CC1CC=C[C@H]2c3cc4c(cc3C(=O)NC12)OCO4 (stereo partly drawn)	false
COC(=O)[C@@]12OC[C@]34C([C@@H](O)C1O)[C@@]1(C)CC(=O)C(O)=C(C)C1C[C@H]3OC(=O)[C@H](OC(=O)CC(C)C(F)(F)F)[C@H]42 (stereo partly drawn)	true
CCOC(=O)CCC(NC(=O)c1ccc(Oc2nc3c(N)cc(C(F)(F)F)cc3nc2-c2ccccc2)cc1)C(=O)OCC (stereo not drawn)	false

Which outcome was assigned to CNC(=O)CCCNC(=O)CCCC(=O)N(C)C in this test? false

# repeat for CN(C)CC/C(=N\Nc1c(Cl)cccc1Cl)c1ccccc1 false

Item: COc1ccc(C2SC(=N)Nc3c2c(C)nn3C(=O)c2ccccc2O)cc1OC (stereo not drawn) false

Same again, this time with O=c1[nH]c(=O)n(C2OC(CO)C(N(O)Cc3ccc(F)cc3)C2O)cc1Br (stereo not drawn) false

Now this one: COC(=O)CCC(=O)N1Cc2cc(C)ccc2N(C(=O)CCC(=O)OC)Cc2cc(C)ccc21 false

Please give the result for Cc1cc2sc(C)[n+](CCCOS(=O)(=O)[O-])c2cc1C too. false

Quick one: [O-][n+]1onc2c1-c1nonc1CC2 false

And what about the compound CC(=O)OCCOCn1cc(C=O)c2ccccc21 ? false

* * *

- System: DU-145
- protocol_details: NCI tumour cell line growth inhibition, 48 h
Calls of active or inactive are those of the source. No stated cut-off is given here; in the data, active = GI50 up to about 1.1 µM and inactive = higher.
The entries below are paired with their reported GI50.

CCN(CC)Cc1cc(/N=N\c2c(O)ccc3c(/N=N\c4ccc(O)c(CN(CC)CC)c4)c(O)ccc23)ccc1O	2.65 µM (inactive)
O=C(O)C1CCCN1Cc1cc2ccccc2c2ccccc12 (stereo not drawn)	> 100 µM (inactive)

// GI50 lookup, key: Nc1ccc2c(O)cc(O)nc2n1 > 100 µM (inactive)

* * *

- Test system: A498
- protocol_details: NCI tumour cell line growth inhibition, 48 h
Active and inactive are the calls of the source. No stated cut-off is given here; in the data, active = GI50 up to about 1.1 µM and inactive = higher.
Here, each record is paired with measured GI50 data.

Below: 2 molecules and their reported GI50.
CNC(=O)CCCNC(=O)CCCC(=O)N(C)C	> 100 µM (inactive)
COc1cc(OC)cc(Oc2nc3cc(F)c(F)cc3nc2-c2ccccc2)c1	> 100 µM (inactive)

Okay, now this molecule:
Reported GI50, molecule Clc1cccc(/C=N/C23CC4CC(CC(C4)C2)C3)c1Cl : ____ > 10 µM (inactive)

* * *

- System: UO-31
- protocol_details: NCI tumour cell line growth inhibition, 48 h
Activity calls are given as the source filed them. No stated cut-off is given here; in the data, active = GI50 up to about 1.1 µM and inactive = higher.
endpoint_label: GI50

Check out these entries, answers already filled in.
O=C(c1ccccc1)c1ccc2cccc(O)c2n1	34.4 µM (inactive)
Cc1cc(Cl)ccc1C1OC(=O)c2c1ccc1ccccc21 (stereo not drawn)	> 100 µM (inactive)

Could you now consider this next molecule?
Endpoint output: GI50 of O=C1CSC(c2ccccc2O)N1c1ccc(-n2c(-c3ccccc3)nc3ccccc3c2=O)cc1 (stereo not drawn) . Value? 18.9 µM (inactive)

* * *

- Tested on: CCRF-CEM
- protocol_details: NCI tumour cell line growth inhibition, 48 h
Active and inactive are the calls of the source. No stated cut-off is given here; in the data, active = GI50 up to about 1.1 µM and inactive = higher.
Select the matching outcome among 1.0 (active), 0.0 (inactive)

Observe how each entry below is paired with its result.
CCOC(=O)CCC(NC(=O)c1ccc(Oc2nc3c(N)cc(C(F)(F)F)cc3nc2-c2ccccc2)cc1)C(=O)OCC (configuration not stated)	0.0
C=CCN(C)CN(C)c1nc(N(C)C)nc(N(C)C)n1	0.0
O=C1C[C@@H](c2ccc(O)cc2)[C@@]2(O1)C(=O)O[C@H]([C@@H](O)CO)[C@@H]2O	0.0
O=c1oc2ccccc2n1P(=O)(Oc1ccc(Cl)cc1)n1c(=O)oc2ccccc21	0.0
Cc1ccc(-c2ccc3c(c2)Sc2ccccc2O3)n1C	1.0
N#C/C(=C\c1ccc(Cl)cc1)c1nc2ccccc2c(=O)[nH]1	0.0
C=CCn1c2ccccc2[n+]2cc([N+](=O)[O-])ccc12	0.0
Nc1nc(SCc2ccccn2)c2ncn(C3CCCC3)c2n1	0.0
Cc1ccccc1/N=N/c1c(O)ccc2ccccc12	0.0
N=C(N)NC(=N)Nc1ccc(S(=O)(=O)O)cc1	0.0

Entry NC1CC2NC3CCCCC3NC2CC1N (configuration not stated) : call = ? 0.0

Now try CC(=O)c1ccc2c(c1)oc(=O)n2CCN1CCCCC1 . 0.0

Could you do the same for O=C(CSc1nc2ccccc2c(=O)n1-c1ccccc1)N/N=C1\C(=O)Nc2ccc(Br)cc21 , please? 0.0

* * *

- Tested on: HOP-62
- protocol_details: NCI tumour cell line growth inhibition, 48 h
The source made the active and inactive calls. Rule as the data show it: active = GI50 up to about 1.1 µM and inactive = higher.
endpoint_label: GI50

O=[N+]([O-])c1ccc(-c2noc(-c3ccc(Cl)cc3)c2C2=NCCN2)cc1	> 100 µM (inactive)
COC(=O)CC1C2CC3C(C2=O)C13 (centres undefined)	> 100 µM (inactive)
CC(C)CC1C(=O)NCCC(NC(=O)C(Cc2ccc(OC(C)(C)C)cc2)NC(=O)OC(C)(C)C)C(=O)NC(Cc2ccccc2)C(=O)NC(Cc2ccccc2)NC1=O (centres undefined)	19.5 µM (inactive)

Entry CCOC(=O)CCC(NC(=O)c1ccc(Oc2nc3c(N)cc(C(F)(F)F)cc3nc2-c2ccccc2)cc1)C(=O)OCC (centres undefined) has what GI50? 6.98 µM (inactive)

* * *

- Tested on: SF-268
- protocol_details: NCI tumour cell line growth inhibition, 48 h
Calls of active or inactive are those of the source. Cut-off read from the data, not from the text of the source: active = GI50 up to about 1.1 µM and inactive = higher.
Lab note: assign the record to one of active, inactive

Solved cases below.
C=CC(C)(C)n1cc(C2=C(O)C(=O)C(c3cn(C(C)(C)C=C)c4ccccc34)=C(OC(C)=O)C2=O)c2ccccc21	active
Nc1ccc2c(c1)S(=O)(=O)c1cc(N)ccc1-2	inactive
C=C(C)[C@H]1C=C[C@@H](OC(=O)c2cccnc2)[C@@]23CO[C@@](C)([C@H](OC(=O)c4cccnc4)[C@@]4(OC(C)=O)C[C@H](C)[C@H](OCCC)[C@@H]4[C@H]2OC(C)=O)[C@H]13	inactive

Answer briefly: the call reported for COC(=O)CCC(NC(=O)OC(C)(C)C)C(=O)NC(Cc1ccc(NC(=O)CCCC(C)=O)cc1)C(=O)NC(CCC(=O)OC)C(=O)OC (centres undefined) in this assay. inactive

* * *

- System: RPMI-8226
- protocol_details: NCI tumour cell line growth inhibition, 48 h
Activity calls are given as the source filed them. No stated cut-off is given here; in the data, active = GI50 up to about 1.1 µM and inactive = higher.
Give your call using only these classes: 1 (yes) for active, 0 (no) for inactive

CC(=O)OCC1OC(SC2=NC(=O)/C(=C/c3ccccc3)S2)C(OC(C)=O)C(OC(C)=O)C1OC(C)=O (configuration not stated)	0 (no)

Dear all, I need the recorded test outcome for CCOC(=O)Cn1sc2ncc([N+](=O)[O-])cc2c1=O , thank you. 0 (no)

What about Cc1cccc(-c2nc3c(C(=O)NCCN(C)C)cccc3[nH]2)c1 ? 0 (no)

Repeat with O=C(/C=C/c1ccccc1)CSc1nc[nH]n1 0 (no)

Also check CC(=O)c1c(O)ccc2c1c1c(n2C)C(=O)c2ccccc2C1=O 0 (no)

// repeat for Cc1[nH]c2ccccc2c1-c1cc(-c2cc(-c3c(C)[nH]c4ccccc34)nc(N)n2)nc(N)n1 and report 0 (no)

* * *

- Test system: OVCAR-4
- protocol_details: NCI tumour cell line growth inhibition, 48 h
Calls of active or inactive are those of the source. No stated cut-off is given here; in the data, active = GI50 up to about 1.1 µM and inactive = higher.
Please reply with one of these outcomes: active, inactive

Consider the worked cases shown below.
O=S(=O)(O)c1cc(/N=N/c2c(O)ccc3ccccc23)c2c(S(=O)(=O)O)cccc2c1	inactive
NNC(=O)c1cc(=O)[nH][nH]1	inactive
N=C(N)NC(=N)Nc1ccc(S(=O)(=O)O)cc1	inactive

Assay result, entry C/C(=C\CC[C@]1(C)OC(C)(C)OC1CC/C(C)=C/CO[Si](c1ccccc1)(c1ccccc1)C(C)(C)C)CC/C=C/CO[Si](C)(C)C(C)(C)C (some centres not stated) — outcome? inactive
